Assay target: Genome polyprotein (Dengue virus type 2 (strain 16681-PDK53)) (UniProt P29991)
Test name: flavivirus cap methylation enzyme inhibition – biochemical, confirmation dose response, primary screen (AID 588689)
Experimental conditions: Dengue-2 NS5 methyltransferase capping enzyme assay, at 25 µM, stronger effect = higher value
Screen size: about 340,000 compounds; about 1,000 (0.29%) were called active. These entries were drawn from the full list. Potency and affinity values are given separately.
Reported inhibition by item:

Consider the reported inhibition for these compounds:
IN: Need inhibition, item `Cc1c(C(c2cccc([N+](=O)[O-])c2O)c2c(C)n(C)n(-c3ccccc3)c2=O)c(=O)n(-c2ccccc2)n1C`
OUT: -5.62% (inactive)

IN: Given the entry COCCCNCC(O)COc1cccc2[nH]c(C)cc12 (configuration not stated) , report its measured inhibition.
OUT: 3.64% (inactive)

IN: Bench note: what inhibition did Cc1ccc(C)c(S(=O)(=O)N2CCCC2CNC(=O)C(=O)NCc2ccco2)c1 (configuration not stated) show?
OUT: 0% (inactive)

IN: # inhibition lookup, item Cc1c(OC(C)C(=O)NCC(O)c2ccccc2)ccc2c3c(c(=O)oc12)CCCC3 (configuration not stated)
OUT: 2.62% (inactive)

IN: Report inhibition for `CCc1nnc(SCC(=O)Nc2ccc3c(c2)OCO3)n1CC` please.
OUT: 2.59% (inactive)

New cases:
IN: If you can, please state the reported inhibition value of O=C(c1cc(-c2ccncc2)nc2ccc(Cl)cc12)N1CCN(C(=O)C2CCCO2)CC1 (configuration not stated) .
OUT: -1.35% (inactive)

IN: I have this compound here, `COc1ccc([N+](=O)[O-])cc1NCC(=O)Nc1cccc(S(=O)(=O)N2CCCC2)c1` , and I need its recorded inhibition.
OUT: -0.72% (inactive)

IN: Entry under review: `COc1cc(/C=C2/C(=O)NN(c3ccccc3)C2=O)cc(Br)c1O` . Reported inhibition?
OUT: -40.3% (inactive)

IN: Using the record for `CC1=CC(C)(C)N(C(=O)CN2C(=O)CCC2=O)c2ccccc21` , report its inhibition.
OUT: 4.64% (inactive)

IN: Query (compound): `Cc1ccc(S(=O)(=O)N2CCN(Cc3cccnc3)CC2)cc1` ; field requested: inhibition
OUT: 2.57% (inactive)

IN: Sample `Nc1ccc(C(=O)Nc2ccc3c(O)cc(S(=O)(=O)O)cc3c2)cc1` — what was its inhibition?
OUT: 4.28% (inactive)

IN: inhibition lookup needed for `Nc1ccc(N=Nc2ccc(O)cc2)c(N)n1` , thanks.
OUT: -2.31% (inactive)
